The entries below come with measured IC50 values attached.
ASSAYED_SYSTEM: Brd4 bromodomain 1 (BRD4(1)) (Homo sapiens)
PROCEDURE_SUMMARY: Inhibition of tetra-acetylated histone H4 binding to Brd4 bromodomain 1 (TR-FRET)
EXPERIMENTAL_CONTEXT: tetra-acetylated histone H4 peptide, first bromodomain of Brd4

Please review the entries below; each comes with its answer.
| MOLECULE | IC50 |
| --- | --- |
| Cc1noc(C)c1-c1cc(N)c2ccn(Cc3ccccc3)c2n1 | 300 to 3000 nM |
| Cc1noc(C)c1-c1cnc2[nH]c(=O)n(Cc3ccccc3)c2c1 | ≤ 300 nM |
| Cc1noc(C)c1-c1cnc2nc(N)n(Cc3ccccc3)c2c1 | ≤ 300 nM |
| Cc1noc(C)c1-c1cnc2nc(C)n(C(C)c3ccccc3)c2c1 (centres unmarked) | ≤ 300 nM |

Could you now look at the following molecule, please?
Find IC50 (Brd4 bromodomain 1 (BRD4(1)) (Homo sapiens)) for the entry Cc1noc(C)c1-c1ccc2c(n1)[nH]c(=O)n2Cc1ccccc1
300 to 3000 nM
